assay_system: UniProt P34998
Sequence (P34998 whole entry): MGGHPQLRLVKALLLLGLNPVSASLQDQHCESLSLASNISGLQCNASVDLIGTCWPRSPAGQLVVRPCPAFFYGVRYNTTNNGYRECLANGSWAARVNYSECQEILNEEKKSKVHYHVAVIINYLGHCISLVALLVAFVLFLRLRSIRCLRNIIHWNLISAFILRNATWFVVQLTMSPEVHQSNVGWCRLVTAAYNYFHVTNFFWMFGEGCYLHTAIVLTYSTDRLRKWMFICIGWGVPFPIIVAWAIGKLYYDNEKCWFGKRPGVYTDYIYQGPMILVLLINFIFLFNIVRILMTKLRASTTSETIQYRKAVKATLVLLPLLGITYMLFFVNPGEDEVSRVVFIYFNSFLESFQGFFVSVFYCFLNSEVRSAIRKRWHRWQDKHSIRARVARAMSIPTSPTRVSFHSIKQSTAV
assay_details: Inhibition of CRF stimulated cAMP production in CHO cells expressing CRF1 receptor
observed_property: IC50 (µM)

[
  {
    "item_smiles": "CCCC(CCC)N1CCn2c(=O)n(-c3ccc(OC)cc3)c3nc(C)cc1c32",
    "assay_system": "UniProt P34998",
    "observed_property": "IC50",
    "observed_measurement": 0.071
  }
]

====

assay_details: Oral bioavailability in Rat upon oral administration
Assay type: ADME, organism-based
condition_notes: in vivo
observed_property: bioavailability (%)

[
  {
    "item_smiles": "CCCC(CCC)N1CCn2c(=O)n(-c3ccc(OC)cc3)c3nc(C)cc1c32",
    "observed_measurement": 30
  }
]

====

assay_details: Concentration maximum in brain of rat was determined after 1 hr upon oral administration
Type: ADME, organism-based
Design: route oral

[
  {
    "item_smiles": "CCCC(CCC)N1CCn2c(=O)n(-c3ccc(OC)cc3)c3nc(C)cc1c32",
    "Cmax": "1180 ng/g"
  }
]

====

assay_details: Terminal half life in rat was determined upon oral administration
Type: ADME, organism-based
condition_notes: in vivo
observed_property: half-life (h)

[
  {
    "item_smiles": "COCC(COC)Nc1nc(C)nc2c(-c3ccc(Cl)cc3Cl)c(C)nn12",
    "observed_property": "half-life",
    "unit": "h",
    "observed_measurement": 16
  }
]
